All values here come from the supplement of paper PMC10065799.

system: c-Abl (mouse); test: phosphorylation enrichment, bacterial display (enrichment ratio); higher = better substrate or ligand; peptides without Tyr show the background;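 also: 11-residue human phosphosite peptides and single-mutation variants displayed on the E. coli surface, counted by deep sequencing, each peptide's frequency after selection divided by its frequency in the unselected input library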;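 also: frequency after pTyr selection over input frequency; kinase dosed for 20-30% of maximal phosphorylation in three min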
# label = True if phosphorylation enrichment >= 0.7 else False

Some solved cases for reference:
entry_sequence="EEEPVYKAEPE [HCLS1_Y360_E361K]" assigned_label=True
entry_sequence="QTPVLYAMLYH [MPZ_Y220_D224Y]" assigned_label=True
entry_sequence="PSPMPYACCQM [FOXL2_Y215_S217C]" assigned_label=False
entry_sequence="RKGGSYSQAAS [HLA-A_Y344_T345S]" assigned_label=True

q: Check if phosphorylation enrichment >= 0.7 (inclusive). Item: VSSPKYGGDDE [TMCC2_Y473_S475G]
a: False

q: Check if phosphorylation enrichment >= 0.7 (inclusive). Item: LDFNEYFRGLN [HPRT1_Y198_D201G_YF]
a: True

q: Check if phosphorylation enrichment >= 0.7 (inclusive). Item: DTVRIYDDDFF [UBA1_Y560_E557V]
a: True

q: Check if phosphorylation enrichment >= 0.7 (inclusive). Item: PYGQWYESHYA [RPS8_Y113_R110G]
a: True

q: Check if phosphorylation enrichment >= 0.7 (inclusive). Item: AGLEDYDRLRP [RAC3_Y64_Q61L]
a: False

q: Check if phosphorylation enrichment >= 0.7 (inclusive). Item: NHFKIHNLCAE [PTEN_Y68_Y68H_YF]
a: False

q: Check if phosphorylation enrichment >= 0.7 (inclusive). Item: QSSALYEDHFL [ASS1_Y83_R86H_YF]
a: True
